# subject.of.test: Human ASK1 (Homo sapiens)
# Construct: expressed in transfected cells; host or cells: HEK293T-AP1
# Sequence (Q99683 1-1374): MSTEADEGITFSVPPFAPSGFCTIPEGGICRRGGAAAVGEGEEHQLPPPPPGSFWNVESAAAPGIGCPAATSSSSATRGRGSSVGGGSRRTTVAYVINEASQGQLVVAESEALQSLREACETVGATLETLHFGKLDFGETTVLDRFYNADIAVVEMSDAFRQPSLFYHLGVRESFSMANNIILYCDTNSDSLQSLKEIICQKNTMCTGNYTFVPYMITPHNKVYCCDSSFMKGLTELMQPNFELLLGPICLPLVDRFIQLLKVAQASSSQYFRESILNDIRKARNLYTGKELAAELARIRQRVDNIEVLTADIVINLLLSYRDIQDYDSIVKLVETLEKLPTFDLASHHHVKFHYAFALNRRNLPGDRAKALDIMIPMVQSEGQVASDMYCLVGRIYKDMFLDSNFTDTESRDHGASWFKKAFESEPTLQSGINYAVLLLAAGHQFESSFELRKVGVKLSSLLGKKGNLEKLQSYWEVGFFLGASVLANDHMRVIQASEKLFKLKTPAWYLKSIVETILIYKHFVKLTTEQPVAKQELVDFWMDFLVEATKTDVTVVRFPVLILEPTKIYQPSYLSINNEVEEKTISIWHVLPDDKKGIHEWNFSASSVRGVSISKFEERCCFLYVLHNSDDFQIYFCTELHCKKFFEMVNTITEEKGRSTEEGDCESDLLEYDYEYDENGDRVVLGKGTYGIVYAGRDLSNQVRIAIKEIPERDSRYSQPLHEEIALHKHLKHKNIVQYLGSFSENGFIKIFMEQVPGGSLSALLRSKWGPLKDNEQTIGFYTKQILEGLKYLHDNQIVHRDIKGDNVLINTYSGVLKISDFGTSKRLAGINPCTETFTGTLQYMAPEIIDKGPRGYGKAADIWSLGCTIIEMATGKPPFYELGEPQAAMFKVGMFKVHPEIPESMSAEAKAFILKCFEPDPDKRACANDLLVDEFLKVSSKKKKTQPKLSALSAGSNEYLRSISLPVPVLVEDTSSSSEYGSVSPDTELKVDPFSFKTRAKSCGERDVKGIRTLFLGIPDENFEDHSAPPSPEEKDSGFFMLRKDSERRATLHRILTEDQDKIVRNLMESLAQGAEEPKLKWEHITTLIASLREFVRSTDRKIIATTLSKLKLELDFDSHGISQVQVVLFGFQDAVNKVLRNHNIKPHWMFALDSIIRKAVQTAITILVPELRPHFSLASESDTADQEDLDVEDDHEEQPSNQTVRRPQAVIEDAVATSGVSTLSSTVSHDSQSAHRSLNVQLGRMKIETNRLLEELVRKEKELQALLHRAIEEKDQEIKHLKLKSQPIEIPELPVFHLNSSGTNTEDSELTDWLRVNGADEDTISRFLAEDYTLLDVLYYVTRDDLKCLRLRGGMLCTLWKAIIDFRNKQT
# test.description: ASK1 Cell Based Assay (phospho p38 read out in hASK1 transfected HEK293T-AP1 cells)
# measurement.parameters: HEK293T-AP1 cells, 1 mM hydrogen peroxide, phospho p38; read-out: Cell Based Assay IC50
The molecules listed here are annotated with their IC50.
reported.property: IC50

{"columns": ["molecule", "reported.property", "endpoint.value"],
 "data": [
  ["COCCS(=O)(=O)c1ccc(N2CCN(c3cccc(-c4nncn4C(C)C)n3)C2=O)cc1", "IC50", "> 1000 nM"],
  ["CC(C)n1cnnc1-c1cccc(N2CCN(c3ccc(S(=O)(=O)N4CCOCC4)cc3)C2=O)n1", "IC50", "> 100 nM"],
  ["CC(C)n1cnnc1-c1cccc(N2CCN(c3ccc(CN4CCOCC4)cc3)C2=O)n1", "IC50", "> 1000 nM"],
  ["CNC(=O)[C@@H]1CCN(c2ccc(N3CCN(c4cccc(-c5nncn5C(C)C)n4)C3=O)cc2)C1", "IC50", "< 100 nM"],
  ["CC(C)n1cnnc1-c1cccc(N2CCN(c3ccc(NC(C(N)=O)C4CC4)cc3)C2=O)n1 (stereo not shown)", "IC50", "> 1000 nM"],
  ["CNC(=O)C1CC2CCC(C1)N2c1ccc(N2CCN(c3cccc(-c4nncn4C(C)C)n3)C2=O)cc1 (stereo not shown)", "IC50", "< 100 nM"],
  ["CC(C)n1cnnc1-c1cccc(N2CCN(c3ccc(N4CCN(C(=O)CC#N)CC4)cc3)C2=O)n1", "IC50", "> 100 nM"],
  ["CC(CO)n1cnnc1-c1cccc(N2CCN(c3ccc(S(C)(=O)=O)cc3)C2=O)n1 (stereo not shown)", "IC50", "> 1000 nM"],
  ["CC(CC#N)n1cnnc1-c1cccc(N2CCN(c3ccc(S(C)(=O)=O)cc3)C2=O)n1 (stereo not shown)", "IC50", "> 1000 nM"],
  ["CC(C)n1cnnc1-c1cccc(N2CCN(c3ccc(S(C)(=O)=O)cc3F)C2=O)n1", "IC50", "> 1000 nM"],
  ["CC(C)n1cnnc1-c1cccc(N2CCN(c3cccc(-c4ccncc4)c3)C2=O)n1", "IC50", "> 10000 nM"],
  ["CC(C)n1cnnc1-c1cccc(N2CCN(c3cccc(-c4cnn(S(C)(=O)=O)c4)c3)C2=O)n1", "IC50", "> 10000 nM"],
  ["CC(C)n1cnnc1-c1cccc(N2CCN(c3ccc(N4CC(F)C4)cc3)C2=O)n1", "IC50", "> 100 nM"],
  ["CC(C)n1cnnc1-c1cccc(N2CCN(c3ccc(N4CC(C#N)C4)nc3)C2=O)n1", "IC50", "< 100 nM"],
  ["CC(C)n1cnnc1-c1cccc(N2CCN(c3ccc(N4CC5(COC5)C4)cc3)C2=O)n1", "IC50", "> 100 nM"],
  ["CC(C)n1cnnc1-c1cccc(N2CCN(c3ccc(NC4CCOCC4)cc3)C2=O)n1", "IC50", "> 100 nM"]
]}
